Test Target: GSK3a (GST-full length GSK3a) (Homo sapiens, UniProt P49840)
Construct: GST-full length GSK3a [SignalChem G08-10G]; purchased SignalChem G08-10G
Sequence (P49840 whole entry): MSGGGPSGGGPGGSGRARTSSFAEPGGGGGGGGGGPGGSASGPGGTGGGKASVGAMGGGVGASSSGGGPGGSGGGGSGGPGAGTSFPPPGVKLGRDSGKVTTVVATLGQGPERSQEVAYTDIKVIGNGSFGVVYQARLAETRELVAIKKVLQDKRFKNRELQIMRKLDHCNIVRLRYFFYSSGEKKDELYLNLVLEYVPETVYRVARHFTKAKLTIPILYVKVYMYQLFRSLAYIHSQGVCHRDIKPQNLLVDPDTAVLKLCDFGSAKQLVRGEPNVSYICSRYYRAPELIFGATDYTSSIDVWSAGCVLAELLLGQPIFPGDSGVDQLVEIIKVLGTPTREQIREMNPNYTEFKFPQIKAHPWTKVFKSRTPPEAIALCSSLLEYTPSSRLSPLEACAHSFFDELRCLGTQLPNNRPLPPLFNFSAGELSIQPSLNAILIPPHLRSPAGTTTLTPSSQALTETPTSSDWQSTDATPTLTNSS
Assay Info: GSK3a TR-FRET kinase inhibition assay
Type: biochemical
Conditions: 1 mM ATP; Table 3; read-out: GSK3a TR-FRET 1 mM ATP Average IC50
Assay Metric: IC50

{"Compound": "CC1(C)CC(=O)C2=C(C1)Nc1nccc(C#N)c1C2(C)c1ccccc1 (single isomer, unassigned) [Compound 108B]", "IC50": "5000 to 20000 nM"}
{"Compound": "C=Cc1ccnc2c1C(C)(c1ccccc1)C1=C(CC(C)(C)CC1=O)N2 (single isomer, unassigned) [Compound 111A]", "IC50": "100 to 1000 nM"}
{"Compound": "Cc1ccnc2c1C(C)(c1ccccc1)C1=C(CC(C)(C)CC1=O)N2 (single isomer, unassigned) [Compound 104A]", "IC50": "1000 to 5000 nM"}
{"Compound": "CC1(C)CC(=O)C2=C(C1)Nc1nccc(C(F)(F)F)c1C2(C)c1ccccc1 (single isomer, unassigned) [Compound 127A]", "IC50": "100 to 1000 nM"}
{"Compound": "CC1(C)CC(=O)C2=C(C1)Nc1ncc(C3CC3)cc1C2(C)c1ccccc1 (single isomer, unassigned) [Compound 117A]", "IC50": "5000 to 20000 nM"}

Let us examine a further case.
CC1(C)CC(=O)C2=C(C1)Nc1ncc(F)c(C#N)c1C2(C)c1ccccc1 (single isomer, unassigned) [Compound 121A] yielded IC50 of ≤ 100 nM

* * *

Assay Info: Human liver microsomal stability
Assay type: in vitro ADME
Conditions: human liver microsomes; Table 4
Microsome Stability (Human) (DMPK_BIIB); Mean; in vitro t1/2 less than 6 min is y; Microsome Stability (Human) (DMPK_BIIB); Mean; in vitro t1/2 greater than or equal to 6 min is n.

{"Compound": "CCC1(c2cccc(-c3ccncc3OC)c2)C2=C(CC(C)(C)CC2=O)Nc2ncc(F)cc21 (single isomer, unassigned) [Compound 1037B]", "Assigned Label": "y"}
{"Compound": "CCC1(c2ccccc2)C2=C(CC(C)(C)CC2=O)Nc2ncccc21 (single isomer, unassigned) [102 B]", "Assigned Label": "y"}
{"Compound": "CCC1(c2cccc(O)c2)C2=C(CC(C)(C)CC2=O)Nc2ncccc21 (single isomer, unassigned) [Compound 1004B]", "Assigned Label": "y"}
{"Compound": "CCC1(c2cccc(O)c2)C2=C(CC(C)(C)CC2=O)Nc2ncccc21 (single isomer, unassigned) [Compound 1004A]", "Assigned Label": "n"}
{"Compound": "CCC1(c2ccccc2)C2=C(CC(C)(C)CC2=O)Nc2ncc(F)cc21 (single isomer, unassigned) [Compound 114A]", "Assigned Label": "n"}

INPUT: Does CCC1(c2ccccc2)C2=C(CC(C)(C)CC2=O)Nc2ncc(F)cc21 (single isomer, unassigned) [Compound 114B] have Microsome Stability (Human) (DMPK_BIIB); Mean; in vitro t1/2 strictly under 6 min?
OUTPUT: y

INPUT: Here's an entry: CCC1(c2cccc(-c3ccncc3)c2)C2=C(CC(C)(C)CC2=O)Nc2ncccc21 (single isomer, unassigned) [Compound 1017A] . Is its Microsome Stability (Human) (DMPK_BIIB); Mean; in vitro t1/2 below 6 min?
OUTPUT: n

INPUT: Is the reported Microsome Stability (Human) (DMPK_BIIB); Mean; in vitro t1/2 for CCC1(c2cccc(-c3ccnc4c3CCCC4)c2)C2=C(CC(C)(C)CC2=O)Nc2ncc(F)cc21 (single isomer, unassigned) [Compound 165B] strictly below 6 min?
OUTPUT: y

INPUT: Dear colleague, could you confirm whether Microsome Stability (Human) (DMPK_BIIB); Mean; in vitro t1/2 of CCC1(c2ccccc2)C2=C(CC3(CCC3)CC2=O)Nc2ncccc21 (single isomer, unassigned) [Compound 110B] falls below 6 min? Thanks.
OUTPUT: y

INPUT: Regarding CCC1(c2ccccc2)C2=C(CC(C)(C)NC2=O)Nc2ncc(F)cc21 (single isomer, unassigned) [Compound 1007B] , kindly confirm whether its Microsome Stability (Human) (DMPK_BIIB); Mean; in vitro t1/2 is beneath 6 min.
OUTPUT: n
